inhibition at 10 µM reference
Molecular target: Cif (Pseudomonas aeruginosa (strain UCBPP-PA14))
Sequence (A0A0H2ZD27 25-319 limits assumed): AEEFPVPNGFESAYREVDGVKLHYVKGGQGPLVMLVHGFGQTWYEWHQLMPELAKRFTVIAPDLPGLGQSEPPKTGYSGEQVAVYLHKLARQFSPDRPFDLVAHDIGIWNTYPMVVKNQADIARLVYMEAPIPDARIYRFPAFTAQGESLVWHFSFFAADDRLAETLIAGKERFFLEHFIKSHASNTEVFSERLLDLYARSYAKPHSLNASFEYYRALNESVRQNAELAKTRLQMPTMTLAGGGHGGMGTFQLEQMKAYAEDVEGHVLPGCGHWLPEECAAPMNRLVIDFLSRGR
Assay: Secondary screen (sextuplicate) with fluorogenic substrate CMNGC;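 also: purified enzyme assay in 96-well plates, 200 µL volume, fluorescence recorded each minute across a 60 min reaction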
Type: biochemical
Details: read-out: % Inhibition, plate 4
Counter-ions that a name gives are not always drawn.
Quick reminder: number only, in %, skip the unit.

In the examples that follow, each entry is paired with its recorded inhibition at 10 µM.
compound | unit of measurement | assay result
CN(C)CCCN1c2ccccc2CCc2ccc(Cl)cc21 [Clomipramine hydrochloride] | % | 3
CC(=O)[C@@]1(O)CC[C@H]2[C@@H]3C[C@H](C)C4=CC(=O)C=C[C@]4(C)[C@@]3(F)[C@@H](O)C[C@@]21C | % | 16
S=c1nc[nH]c2nc[nH]c12 | % | 15

Prompt: What inhibition at 10 µM value was documented for this compound, C=CC1=C(C)c2cc3[nH]c(cc4nc(cc5[nH]c(cc1n2)c(C)c5CCC(=O)O)C(CCC(=O)O)=C4C)c(C)c3C=C ?
Completion: 18

Prompt: What inhibition at 10 µM value was documented for this compound, CCCCCCCCCCCCCCCCOP(=O)([O-])OCC[N+](C)(C)C ?
Completion: 10

Prompt: What inhibition at 10 µM value was documented for this compound, N#C[C@@H]1C[C@@H]2C[C@@H]2N1C(=O)[C@@H](N)C12CC3CC(CC(O)(C3)C1)C2 ?
Completion: 6

Prompt: What inhibition at 10 µM value was documented for this compound, C=C(NC(=O)C(=C)NC(=O)c1csc(C2=N[C@@H]3c4csc(n4)[C@H]4NC(=O)c5csc(n5)[C@H]([C@](C)(O)[C@@H](C)O)NC(=O)[C@H]5CSC(=N5)/C(=C/C)NC(=O)[C@H]([C@@H](C)O)NC(=O)c5csc(n5)[C@]3(CC2)NC(=O)[C@H](C)NC(=O)C(=C)NC(=O)[C@H](C)NC(=O)[C@H]([C@@H](C)CC)N[C@@H]2C=Cc3c([C@H](C)O)cc(nc3[C@H]2O)C(=O)O[C@@H]4C)n1)C(N)=O ?
Completion: 27

Hey, just so you know, these numbers are from patent US10322118B2.
